biological target: baker's yeast ALDH1 (Saccharomyces cerevisiae); construct: purchased Sigma (St. Louis, MO, USA); assay: In vitro ALDH1 inhibitory assay (propanal oxidation, NAD, OD 340 nm); format: biochemical; conditions: 1 mM propanal, 2 mM NAD, pH 7.4, 25 °C; read-out: IC50
Sequence (P46367 25-519): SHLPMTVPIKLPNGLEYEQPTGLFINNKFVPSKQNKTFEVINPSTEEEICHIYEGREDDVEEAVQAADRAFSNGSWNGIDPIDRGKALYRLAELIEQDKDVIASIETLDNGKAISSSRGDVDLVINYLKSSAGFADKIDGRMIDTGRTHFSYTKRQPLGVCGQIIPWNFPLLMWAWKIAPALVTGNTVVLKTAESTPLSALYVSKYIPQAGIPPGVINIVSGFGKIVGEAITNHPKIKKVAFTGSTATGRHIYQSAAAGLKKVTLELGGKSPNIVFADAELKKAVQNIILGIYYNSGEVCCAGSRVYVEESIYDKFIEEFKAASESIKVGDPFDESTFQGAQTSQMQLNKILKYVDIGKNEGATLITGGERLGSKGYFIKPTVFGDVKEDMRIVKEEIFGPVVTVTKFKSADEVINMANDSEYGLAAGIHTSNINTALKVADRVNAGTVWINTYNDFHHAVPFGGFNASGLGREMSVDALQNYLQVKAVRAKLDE
Readout Type: IC50 (µM)
The reply should be a number in µM, with the unit left off.

Solved entries:
COc1cc(/C=C/C(=O)CC(=O)/C=C/c2ccc(O)c(OC)c2)ccc1O    36.9
O=C1/C(=C/c2ccc(O)c(O)c2)COC/C1=C\c1ccc(O)c(O)c1    7.9
O=C1/C(=C/c2ccc(O)cc2)COC/C1=C\c1ccc(O)cc1    39.7
O=C1/C(=C/c2ccc(O)c(O)c2)CNC/C1=C\c1ccc(O)c(O)c1    39.4
O=C(/C=C/c1cc(Br)c(O)c(Br)c1)/C=C/c1cc(Br)c(O)c(Br)c1    25.8

Entry O=C1/C(=C/c2cc(Br)c(O)c(Br)c2)COC/C1=C\c1cc(Br)c(O)c(Br)c1 — recorded IC50 = 18.7

Please fill in: IC50 reported for COc1cc(/C=C2\CSC/C(=C\c3ccc(O)c(OC)c3)C2=O)ccc1O = 31.3

response.value for O=C1/C(=C/c2cccs2)CC/C1=C\c1cccs1 (field: IC50) = 30.1

Lab note: measured IC50 of O=C(/C=C/c1ccc(O)c(O)c1)/C=C/c1ccc(O)c(O)c1 was 23.6
